# assay.info: Photophysical measurements of photosensitizers (λmax, ε, φ f)
# Type: physicochemical
# φ f >= 0.03 gives true (1), anything below gives false (0)

Study these solved cases before continuing.
{"columns": ["chem.smiles", "assigned.label"],
 "data": [
  ["CCC1=C(CC)C2=NC1=Cc1c(CC)c(CC)c3[n]1[In]([Cl])[n]1c(c(CC)c(CC)c1=c1cc(S(=O)(=O)NCCCO)cc4c1=NC(=C3)C4(CC)CC)=C2", "false (0)"],
  ["CCC1=C(CC)C2=NC1=Cc1c(CC)c(CC)c3[n]1[In]([Cl])[n]1c(c(CC)c(CC)c1=c1cccc4c1=NC(=C3)C4(CC)CC)=C2", "false (0)"],
  ["CCC1=C(CC)c2cc3[nH]c(c(CC)c3CC)c3cccc4c3nc(cc3[nH]c(cc1n2)c(CC)c3CC)C4(CC)CC", "true (1)"],
  ["CCC1=C(CC)C2=NC1=Cc1c(CC)c(CC)c3[n]1[Zn][n]1c(c(CC)c(CC)c1=c1cccc4c1=NC(=C3)C4(CC)CC)=C2", "true (1)"]
]}

Here is the next item to consider.
# check: φ f of CCC1=C(CC)c2cc3[nH]c(c(CC)c3CC)c3cc(C)cc4c3nc(cc3[nH]c(cc1n2)c(CC)c3CC)C4(CC)CC is greater than or equal to 0.03 true (1)

###

# assay.info: Photophysical measurements of photosensitizers (λmax, ε, φ f)
# Type: physicochemical
# Design: unit not given here
# condition.label: band I absorption maximum
outcome.measure: λmax
Numbers only.

# count of solved cases: 2
{"columns": ["compound", "λmax"],
 "data": [
  ["CCC1=C(CC)C2=NC1=Cc1c(CC)c(CC)c3[n]1[In]([Cl])[n]1c(c(CC)c(CC)c1=c1cc(S(=O)(=O)NCCOCCOCCOC)cc4c1=NC(=C3)C4(CC)CC)=C2 [Compound 16]", 684],
  ["CCC1=C(CC)C2=NC1=Cc1c(CC)c(CC)c3[n]1[In]([Cl])[n]1c(c(CC)c(CC)c1=c1cc(S(=O)(=O)N(CCO)CCO)cc4c1=NC(=C3)C4(CC)CC)=C2 [Compound 12]", 684]
]}

Give me λmax for each of these compounds, listed below.
1. CCC1=C(CC)C2=NC1=Cc1c(CC)c(CC)c3[n]1[In]([Cl])[n]1c(c(CC)c(CC)c1=c1cccc4c1=NC(=C3)C4(CC)CC)=C2 [Compound 9, In Octaethylbenzochlorin]
2. CCC1=C(CC)C2=NC1=Cc1c(CC)c(CC)c3[n]1[In]([Cl])[n]1c(c(CC)c(CC)c1=c1cc(S(=O)(=O)NCC(=O)O)cc4c1=NC(=C3)C4(CC)CC)=C2 [Compound 20]

[691, 684]

Provide reported λmax for each item, in the same order as listed.
1. CCC1=C(CC)C2=NC1=Cc1c(CC)c(CC)c3[n]1[In]([Cl])[n]1c(c(CC)c(CC)c1=c1cc(S(=O)(=O)NCCCCC(N)C(=O)O)cc4c1=NC(=C3)C4(CC)CC)=C2 (centres unmarked) [Compound 21, InOEBCSO2NH (CH2)4CH(NH2)CO2H]
2. CCC1=C(CC)C2=NC1=Cc1c(CC)c(CC)c3[n]1[In]([Cl])[n]1c(c(CC)c(CC)c1=c1cc(S(=O)(=O)NCCCS)cc4c1=NC(=C3)C4(CC)CC)=C2 [Compound 18]
3. CCC1=C(C)C2=NC1=Cc1c(C)c3c4[n]1[Pd][n]1c(c(C)c(C(C)=O)c1=C2)=CC1=NC(=C4CC3=O)[C@@H](CCC(=O)OC)[C@@H]1C [Compound 28]
4. CCC1=C(CC)c2cc3[nH]c(c(CC)c3CC)c3cc(S(=O)(=O)NCCCO)cc4c3nc(cc3[nH]c(cc1n2)c(CC)c3CC)C4(CC)CC [Compound 2, OEBCSO2NH(CH2)3OH]
5. CCC1=C(CC)C2=NC1=Cc1c(CC)c(CC)c3[n]1[Zn][n]1c(c(CC)c(CC)c1=c1cccc4c1=NC(=C3)C4(CC)CC)=C2 [Compound 4]
6. CCC1=C(CC)c2cc3[nH]c(c(CC)c3CC)c3cccc4c3nc(cc3[nH]c(cc1n2)c(CC)c3CC)C4(CC)CC [Compound 1, Octaethylbenzochlorin]
7. CCC1=C(CC)C2=NC1=Cc1c(CC)c(CC)c3[n]1[In]([Cl])[n]1c(c(CC)c(CC)c1=c1cc(S(=O)(=O)NCCCCCO)cc4c1=NC(=C3)C4(CC)CC)=C2 [Compound 13]

1: 684; 2: 684; 3: 653; 4: 665; 5: 678; 6: 658; 7: 684
